Test system: PC-9
PROCEDURE TEXT: Antiproliferative activity against human PC-9 cells expressing EGFR mutation incubated for 48 hrs by CCK8 assay
RECORDED CONDITIONS: Homo sapiens, PC-9, 48 h
EXPERIMENTAL READOUT: IC50 (nM)
State the answer as a number, implicitly in nM.

Notebook entry, PC-9 assay: IC50 of [2H]C([2H])([2H])C([2H])([S+]([O-])c1ccccc1Nc1nc(Nc2cc(NC(=O)C=C)c(N(C)CCN(C)C)cc2OC)ncc1Cl)C([2H])([2H])[2H] (configuration not stated) = ?
45.9

Item C=CC(=O)Nc1cc(Nc2nccc(-c3cn(C)c4ccccc34)n2)c(OC)cc1N(C)CCN(C)C [OSIMERTINIB] with PC-9 - IC50?
6.43

Identify the measured IC50 of C=CC(=O)Nc1cc(Nc2ncc(Cl)c(Nc3cccc(F)c3[S+]([O-])C(C)C)n2)c(OC)cc1N(C)CCN(C)C (configuration not stated) for PC-9.
2.81

Give recorded IC50 with PC-9 for the following molecule: Cc1cc(Nc2ncc(Cl)c(Nc3ccccc3S(=O)(=O)C(C)C)n2)c(OC(C)C)cc1C1CCNCC1 [CERITINIB]
2150

Item: [2H]C([2H])([2H])C([2H])([S+]([O-])c1c(F)cccc1Nc1nc(Nc2cc(NC(=O)C=C)c(N(C)CCN(C)C)cc2OC)ncc1Cl)C([2H])([2H])[2H] (configuration not stated) Test system: PC-9 Read-out: IC50 Value: ?
5.56

GET /values?readout=IC50&system=PC-9&item= COc1cc(N2CCC(N3CCN(C)CC3)CC2)ccc1Nc1ncc(Cl)c(Nc2ccccc2P(C)(C)=O)n1 [BRIGATINIB]
983

Missing value: IC50, PC-9, entry C=CC(=O)Nc1cc(Nc2ncc(Cl)c(Nc3ccc(Cl)cc3[S+]([O-])C(C)C)n2)c(OC)cc1N(C)CCN(C)C (configuration not stated) . Fill in?
2.53
